target: Voltage-gated potassium channel subunit beta-2 (Rattus norvegicus) (UniProt P62483)
Sequence (P62483 whole entry, looked up): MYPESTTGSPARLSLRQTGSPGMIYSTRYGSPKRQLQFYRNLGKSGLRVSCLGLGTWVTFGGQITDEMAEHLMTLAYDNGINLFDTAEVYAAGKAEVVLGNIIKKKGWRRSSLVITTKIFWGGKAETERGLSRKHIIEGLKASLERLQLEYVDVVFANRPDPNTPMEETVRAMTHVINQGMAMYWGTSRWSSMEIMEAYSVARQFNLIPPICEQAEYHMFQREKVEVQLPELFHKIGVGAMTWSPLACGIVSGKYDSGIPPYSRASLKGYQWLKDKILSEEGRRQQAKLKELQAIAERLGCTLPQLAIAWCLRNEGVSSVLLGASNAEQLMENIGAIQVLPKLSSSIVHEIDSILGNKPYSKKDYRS
assay summary: KvBeta enzyme negative modulators, primary screen, biochemical, NADPH fluorescence (AID 622);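 further: slope of raw intensity against log time taken from 70 to 1610 s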
stated conditions: recombinant KvBeta, 4-cyanobenzaldehyde reduction, at 10 µM, active compounds read high
# fluorescence slope values compiled below

{"compound": "Cc1nn(C)cc1/C=N/n1nnnc1N", "target": "Voltage-gated potassium channel subunit beta-2 (Rattus norvegicus) (UniProt P62483)", "fluorescence slope": -0.487}
{"compound": "COc1ccc(OCC(O)CN2C(=O)NC(C)(C)C2=O)cc1 (centres undefined)", "target": "Voltage-gated potassium channel subunit beta-2 (Rattus norvegicus) (UniProt P62483)", "fluorescence slope": -0.419}
{"compound": "N#Cc1nc(-c2cccs2)oc1NCc1ccccc1Cl", "target": "Voltage-gated potassium channel subunit beta-2 (Rattus norvegicus) (UniProt P62483)", "fluorescence slope": -0.513}
{"compound": "O=C(CN1C(=O)c2ccccc2S1(=O)=O)NCCSCc1ccco1", "target": "Voltage-gated potassium channel subunit beta-2 (Rattus norvegicus) (UniProt P62483)", "fluorescence slope": -0.457}
{"compound": "CCCCCCC1/C(=N/O)CCC1C(=O)OC (centres undefined)", "target": "Voltage-gated potassium channel subunit beta-2 (Rattus norvegicus) (UniProt P62483)", "fluorescence slope": -0.614}
{"compound": "CCNC(=O)COn1c(SCC(=O)NCC)nc2ccccc2c1=O", "target": "Voltage-gated potassium channel subunit beta-2 (Rattus norvegicus) (UniProt P62483)", "fluorescence slope": -0.443}
{"compound": "O=C(NC1CCN(Cc2ccccc2)CC1)C1CCN(S(=O)(=O)c2cccc3cccnc23)CC1", "target": "Voltage-gated potassium channel subunit beta-2 (Rattus norvegicus) (UniProt P62483)", "fluorescence slope": -0.561}
{"compound": "CC1(C)Cc2c(C#N)c(OCC(=O)c3ccccc3)nc(-c3ccoc3)c2CO1", "target": "Voltage-gated potassium channel subunit beta-2 (Rattus norvegicus) (UniProt P62483)", "fluorescence slope": -0.465}
{"compound": "Cc1csc(NC(=O)c2cc3c(s2)-c2ccccc2OC3)n1", "target": "Voltage-gated potassium channel subunit beta-2 (Rattus norvegicus) (UniProt P62483)", "fluorescence slope": -0.247}
{"compound": "CCCc1nnc2n1N=C(c1ccc(-c3cc(Cl)ccc3Cl)o1)CS2", "target": "Voltage-gated potassium channel subunit beta-2 (Rattus norvegicus) (UniProt P62483)", "fluorescence slope": -0.447}
{"compound": "O=C(c1ccc2c3c(cccc13)C(=O)N(O)C2=O)N1CCCCC1", "target": "Voltage-gated potassium channel subunit beta-2 (Rattus norvegicus) (UniProt P62483)", "fluorescence slope": -0.426}
{"compound": "C=CCNc1nc(NCc2ccccc2)c(C#N)c2c1CN(C)CC2", "target": "Voltage-gated potassium channel subunit beta-2 (Rattus norvegicus) (UniProt P62483)", "fluorescence slope": -0.407}
{"compound": "COc1cccc(CNc2nc3nc(C)c(Cl)c(C)n3n2)c1", "target": "Voltage-gated potassium channel subunit beta-2 (Rattus norvegicus) (UniProt P62483)", "fluorescence slope": -0.375}
{"compound": "Cc1ccccc1N1C(=O)CC(Sc2nnc(-c3ccccc3)o2)C1=O (centres undefined)", "target": "Voltage-gated potassium channel subunit beta-2 (Rattus norvegicus) (UniProt P62483)", "fluorescence slope": -0.383}
{"compound": "CSc1nc2sc3c(c2c2nnnn12)CCCC3", "target": "Voltage-gated potassium channel subunit beta-2 (Rattus norvegicus) (UniProt P62483)", "fluorescence slope": -0.455}
{"compound": "CCOC(=O)C1CCCN(C(=O)c2cc3c(=O)n4cccc(C)c4nc3n2C)C1 (centres undefined)", "target": "Voltage-gated potassium channel subunit beta-2 (Rattus norvegicus) (UniProt P62483)", "fluorescence slope": -0.467}
{"compound": "Cc1cc(=O)oc(C)c1C(=O)NC12CC3CC(CC(C3)C1)C2", "target": "Voltage-gated potassium channel subunit beta-2 (Rattus norvegicus) (UniProt P62483)", "fluorescence slope": -0.455}
{"compound": "Cc1occc1C(=O)Nc1nnc(C2CCCCC2)s1", "target": "Voltage-gated potassium channel subunit beta-2 (Rattus norvegicus) (UniProt P62483)", "fluorescence slope": -0.526}
{"compound": "Nc1cc(CN2C(=O)c3ccccc3C2=O)cc(Cl)c1O", "target": "Voltage-gated potassium channel subunit beta-2 (Rattus norvegicus) (UniProt P62483)", "fluorescence slope": -0.401}
{"compound": "COC(=O)CSc1nc2c(c(=O)n(C)c(=O)n2C)n1CCC(C)C", "target": "Voltage-gated potassium channel subunit beta-2 (Rattus norvegicus) (UniProt P62483)", "fluorescence slope": -0.394}
{"compound": "C=CCn1c(SCc2ccc(C#N)cc2)nnc1-c1cccc(Cl)c1", "target": "Voltage-gated potassium channel subunit beta-2 (Rattus norvegicus) (UniProt P62483)", "fluorescence slope": -0.421}
{"compound": "CC/C(O)=C(/C#N)c1nnc2n1CCCCC2", "target": "Voltage-gated potassium channel subunit beta-2 (Rattus norvegicus) (UniProt P62483)", "fluorescence slope": -0.608}
{"compound": "CC(C)(C)C1=Nn2c(nnc2C2CCCCC2)SC1", "target": "Voltage-gated potassium channel subunit beta-2 (Rattus norvegicus) (UniProt P62483)", "fluorescence slope": -0.452}
{"compound": "COCC(=O)N(Cc1cc2cc(OC)ccc2[nH]c1=O)c1ccccc1", "target": "Voltage-gated potassium channel subunit beta-2 (Rattus norvegicus) (UniProt P62483)", "fluorescence slope": -0.453}
{"compound": "CCc1nc(N2CCOCC2)c(C#N)c2c1CCCC2", "target": "Voltage-gated potassium channel subunit beta-2 (Rattus norvegicus) (UniProt P62483)", "fluorescence slope": -0.482}
{"compound": "O=C(O)CCn1[nH]c(=O)ccc1=O", "target": "Voltage-gated potassium channel subunit beta-2 (Rattus norvegicus) (UniProt P62483)", "fluorescence slope": -0.562}
{"compound": "Cc1cc(=O)n(CCC(=O)O)c2ccccc12", "target": "Voltage-gated potassium channel subunit beta-2 (Rattus norvegicus) (UniProt P62483)", "fluorescence slope": -0.48}
{"compound": "Cn1ncc(N=Cc2c(O)ccc3ccccc23)c1C(=O)N1CCOCC1", "target": "Voltage-gated potassium channel subunit beta-2 (Rattus norvegicus) (UniProt P62483)", "fluorescence slope": -0.482}
{"compound": "Cn1c(NC(=O)c2ccccc2NC(=O)C(C)(C)C)nc2ccccc21", "target": "Voltage-gated potassium channel subunit beta-2 (Rattus norvegicus) (UniProt P62483)", "fluorescence slope": -0.163}
{"compound": "Cc1ccc(CCNC(=O)C2CCC(=O)N2C2CCCC2)cc1 (centres undefined)", "target": "Voltage-gated potassium channel subunit beta-2 (Rattus norvegicus) (UniProt P62483)", "fluorescence slope": -0.493}
{"compound": "CC1(C)Cc2c(c(N3CCOCC3)nc3sc4c(=O)[nH]cnc4c23)CS1", "target": "Voltage-gated potassium channel subunit beta-2 (Rattus norvegicus) (UniProt P62483)", "fluorescence slope": -0.44}
{"compound": "Cc1cccc2cc(C#N)c(SCCN3CCCCC3)nc12", "target": "Voltage-gated potassium channel subunit beta-2 (Rattus norvegicus) (UniProt P62483)", "fluorescence slope": -0.334}
{"compound": "Cn1c(=O)c2c(nc(NCc3ccco3)n2CCc2ccccc2)n(C)c1=O", "target": "Voltage-gated potassium channel subunit beta-2 (Rattus norvegicus) (UniProt P62483)", "fluorescence slope": -0.524}
{"compound": "c1ccc(-c2noc(C3CCCCC3)n2)nc1", "target": "Voltage-gated potassium channel subunit beta-2 (Rattus norvegicus) (UniProt P62483)", "fluorescence slope": -0.52}
{"compound": "C=C(C)Cn1c(N2CC(C)CC(C)C2)nc2c1c(=O)[nH]c(=O)n2C (centres undefined)", "target": "Voltage-gated potassium channel subunit beta-2 (Rattus norvegicus) (UniProt P62483)", "fluorescence slope": -0.421}
{"compound": "Nc1cc(=O)[nH]c(SCC(=O)Nc2ccc(Br)cc2)n1", "target": "Voltage-gated potassium channel subunit beta-2 (Rattus norvegicus) (UniProt P62483)", "fluorescence slope": -0.507}
{"compound": "CC1=C(C(=O)OC(C)C)C(c2ccccn2)n2ncnc2N1 (centres undefined)", "target": "Voltage-gated potassium channel subunit beta-2 (Rattus norvegicus) (UniProt P62483)", "fluorescence slope": -0.569}
{"compound": "CCOC(=O)CC12CN3CN(C1)CC(CC(=O)OCC)(C3)C2=O", "target": "Voltage-gated potassium channel subunit beta-2 (Rattus norvegicus) (UniProt P62483)", "fluorescence slope": -0.497}
{"compound": "CCCCOCP(=O)(CCCC)COCCCC", "target": "Voltage-gated potassium channel subunit beta-2 (Rattus norvegicus) (UniProt P62483)", "fluorescence slope": -0.459}
{"compound": "CCC1CCCCN1CCCNC(=O)CC1Oc2ccc(C)cc2NC1=O (centres undefined)", "target": "Voltage-gated potassium channel subunit beta-2 (Rattus norvegicus) (UniProt P62483)", "fluorescence slope": -0.499}
{"compound": "CCN(CC)CCn1c2ccccc2c2nc(C)sc21", "target": "Voltage-gated potassium channel subunit beta-2 (Rattus norvegicus) (UniProt P62483)", "fluorescence slope": -0.622}
{"compound": "O=C(CSc1nnc(CNC(=O)c2cccs2)o1)Nc1cccc(C(F)(F)F)c1", "target": "Voltage-gated potassium channel subunit beta-2 (Rattus norvegicus) (UniProt P62483)", "fluorescence slope": -0.379}
{"compound": "Cn1c(Cl)nc2ccccc21", "target": "Voltage-gated potassium channel subunit beta-2 (Rattus norvegicus) (UniProt P62483)", "fluorescence slope": -0.514}
{"compound": "CCC(Sc1nc(-c2ccccc2)c(C#N)c(=O)[nH]1)C(=O)Nc1cc(C)on1 (centres undefined)", "target": "Voltage-gated potassium channel subunit beta-2 (Rattus norvegicus) (UniProt P62483)", "fluorescence slope": -0.357}
{"compound": "COc1ccc(CC(=O)Nc2cccc(-c3nnc(-c4ccco4)o3)c2)cc1", "target": "Voltage-gated potassium channel subunit beta-2 (Rattus norvegicus) (UniProt P62483)", "fluorescence slope": -0.475}
{"compound": "CC(=O)NC(=O)Nc1sc(=S)n(C)c1C", "target": "Voltage-gated potassium channel subunit beta-2 (Rattus norvegicus) (UniProt P62483)", "fluorescence slope": -0.515}
{"compound": "COc1ccc2c(CC(=O)Nc3nnc(C4CC4)s3)coc2c1", "target": "Voltage-gated potassium channel subunit beta-2 (Rattus norvegicus) (UniProt P62483)", "fluorescence slope": -0.482}
{"compound": "COc1ccc(-c2nc3c(n2O)CCC/C3=N\\O)cc1", "target": "Voltage-gated potassium channel subunit beta-2 (Rattus norvegicus) (UniProt P62483)", "fluorescence slope": -0.413}
{"compound": "Cc1cc(C)n(-c2nc3nonc3nc2-n2nc(C)cc2C)n1", "target": "Voltage-gated potassium channel subunit beta-2 (Rattus norvegicus) (UniProt P62483)", "fluorescence slope": -0.416}
